system: NCI-H1915; test: relative viability (nuclei count vs DMSO), 5 days (fraction); higher = more cells survive; settings: first compound 0.1581 µM
What relative viability was measured for each of the following?
Numbers only.

| compound | relative viability |
| --- | --- |
| CC1(C)CCC(c2ccc(Cl)cc2)=C(CN2CCN(c3ccc(C(=O)NS(=O)(=O)c4ccc(N[C@H](CCN5CCOCC5)CSc5ccccc5)c(S(=O)(=O)C(F)(F)F)c4)cc3)CC2)C1 [Navitoclax] + CS(=O)(=O)N1CCN(Cc2cc3nc(-c4cccc5[nH]ncc45)nc(N4CCOCC4)c3s2)CC1 [Pictilisib] (partner 1 µM) | 0.933 |
| CC1(C)CCC(c2ccc(Cl)cc2)=C(CN2CCN(c3ccc(C(=O)NS(=O)(=O)c4ccc(N[C@H](CCN5CCOCC5)CSc5ccccc5)c(S(=O)(=O)C(F)(F)F)c4)cc3)CC2)C1 [Navitoclax] + O=C(CCCCCCC(=O)Nc1ccccc1)NO [Vorinostat] (partner 1 µM) | 0.481 |
| CC1(C)CCC(c2ccc(Cl)cc2)=C(CN2CCN(c3ccc(C(=O)NS(=O)(=O)c4ccc(N[C@H](CCN5CCOCC5)CSc5ccccc5)c(S(=O)(=O)C(F)(F)F)c4)cc3)CC2)C1 [Navitoclax] + CC(C)C[C@H](NC(=O)[C@H](Cc1ccccc1)NC(=O)c1cnccn1)B(O)O [Bortezomib] (partner 0.002 µM) | 0.865 |

Could you tell me relative viability for each of these compounds? They are listed below.
1. CC1(C)CCC(c2ccc(Cl)cc2)=C(CN2CCN(c3ccc(C(=O)NS(=O)(=O)c4ccc(N[C@H](CCN5CCOCC5)CSc5ccccc5)c(S(=O)(=O)C(F)(F)F)c4)cc3)CC2)C1 [Navitoclax] + Nc1ncn([C@H]2C[C@H](O)[C@@H](CO)O2)c(=O)n1 [Decitabine] (partner 2 µM)
2. CC1(C)CCC(c2ccc(Cl)cc2)=C(CN2CCN(c3ccc(C(=O)NS(=O)(=O)c4ccc(N[C@H](CCN5CCOCC5)CSc5ccccc5)c(S(=O)(=O)C(F)(F)F)c4)cc3)CC2)C1 [Navitoclax] + Cc1cc(Nc2cc(N3CCN(C)CC3)nc(Sc3ccc(NC(=O)C4CC4)cc3)n2)n[nH]1 [Tozasertib] (partner 0.1 µM)

Response:
[0.247, 0.414]

* * *

test system: EBC-1; experiment: relative viability (nuclei count vs DMSO), 5 days (fraction); higher = more cells survive; details: first compound 0.253 µM
Could you please report measured relative viability for the items listed next?
One number for each entry.

| molecule | measurement.target | relative viability |
| --- | --- | --- |
| Oc1nc(-c2ccc(C(F)(F)F)cc2)nc2c1CSCC2 [XAV939] + C[C@]1(O)C[C@@H](c2nc(-c3ccc4ccc(-c5ccccc5)nc4c3)c3c(N)nccn32)C1 [Linsitinib] (partner 1 µM) | EBC-1 | 0.832 |

Record relative viability for all entries; do not skip any.
1. Oc1nc(-c2ccc(C(F)(F)F)cc2)nc2c1CSCC2 [XAV939] + CC(C)C[C@H](NC(=O)[C@H](Cc1ccccc1)NC(=O)c1cnccn1)B(O)O [Bortezomib] (partner 0.002 µM)
2. Oc1nc(-c2ccc(C(F)(F)F)cc2)nc2c1CSCC2 [XAV939] + COc1cc2c(Oc3ccc(NC(=O)C4(C(=O)Nc5ccc(F)cc5)CC4)cc3F)ccnc2cc1OCCCN1CCOCC1 [Foretinib] (partner 0.25 µM)
3. C=C1C(=O)O[C@@H](CCCCCCCC)[C@@H]1C(=O)O [C-75] + O=C(c1cc(Cc2n[nH]c(=O)c3ccccc23)ccc1F)N1CCN(C(=O)C2CC2)CC1 [Olaparib] (partner 8 µM)
4. C=C1C(=O)O[C@@H](CCCCCCCC)[C@@H]1C(=O)O [C-75] + C[C@@H](Oc1cc(-c2cnn(C3CCNCC3)c2)cnc1N)c1c(Cl)ccc(F)c1Cl [Crizotinib] (partner 1 µM)
5. C=C1C(=O)O[C@@H](CCCCCCCC)[C@@H]1C(=O)O [C-75] + CS(=O)(=O)CCNCc1ccc(-c2ccc3ncnc(Nc4ccc(OCc5cccc(F)c5)c(Cl)c4)c3c2)o1 [Lapatinib] (partner 2 µM)
6. Oc1nc(-c2ccc(C(F)(F)F)cc2)nc2c1CSCC2 [XAV939] + CS(=O)(=O)N1CCN(Cc2cc3nc(-c4cccc5[nH]ncc45)nc(N4CCOCC4)c3s2)CC1 [Pictilisib] (partner 1 µM)
7. C=C1C(=O)O[C@@H](CCCCCCCC)[C@@H]1C(=O)O [C-75] + COc1cc2c(Oc3ccc(NC(=O)C4(C(=O)Nc5ccc(F)cc5)CC4)cc3F)ccnc2cc1OCCCN1CCOCC1 [Foretinib] (partner 0.25 µM)

Response:
0.478
0.113
0.807
0.184
0.237
0.346
0.11

* * *

system: NCI-H661; assay: relative viability (nuclei count vs DMSO), 5 days (fraction); higher = more cells survive; conditions: first compound 0.03162 µM
With a cut-off of 0.6, any relative viability strictly below it is called Condition met; any relative viability meeting it or above is called Condition not met.

| compound | label.value |
| --- | --- |
| NC(=O)Nc1cc(-c2cccc(F)c2)sc1C(=O)N[C@H]1CCCNC1 [AZD7762] + COc1cccc2cc(-c3nc([C@H]4CC[C@H](C(=O)O)CC4)n4ncnc(N)c34)[nH]c12 [OSI-027] (partner 0.5 µM) | Condition not met |
| NC(=O)Nc1cc(-c2cccc(F)c2)sc1C(=O)N[C@H]1CCCNC1 [AZD7762] + O=C(c1cc(Cc2n[nH]c(=O)c3ccccc23)ccc1F)N1CCN(C(=O)C2CC2)CC1 [Olaparib] (partner 8 µM) | Condition not met |

Query: Hi there! Is relative viability for NC(=O)Nc1cc(-c2cccc(F)c2)sc1C(=O)N[C@H]1CCCNC1 [AZD7762] + Nc1ncn([C@H]2C[C@H](O)[C@@H](CO)O2)c(=O)n1 [Decitabine] (partner 2 µM) below 0.6, do you know?
Response: Condition not met

Query: Find out if reported relative viability for NC(=O)Nc1cc(-c2cccc(F)c2)sc1C(=O)N[C@H]1CCCNC1 [AZD7762] + CC(=O)c1c(C)c2cnc(Nc3ccc(N4CCNCC4)cn3)nc2n(C2CCCC2)c1=O [Palbociclib] (partner 0.5 µM) is less than 0.6
Response: Condition met

Query: Lab note: confirm whether the reported relative viability for this compound is below 0.6, equality not counting. compound: NC(=O)Nc1cc(-c2cccc(F)c2)sc1C(=O)N[C@H]1CCCNC1 [AZD7762] + C[C@]1(O)C[C@@H](c2nc(-c3ccc4ccc(-c5ccccc5)nc4c3)c3c(N)nccn32)C1 [Linsitinib] (partner 1 µM)
Response: Condition met

* * *

test system: NCI-H1734; test: relative viability (nuclei count vs DMSO), 5 days (fraction); higher = more cells survive; conditions: first compound 0.1265 µM
The label is criterion met for relative viability below 0.5 and criterion not met for relative viability equal to or exceeding 0.5.

Example results:
| molecule | measurement.target | label.value |
| --- | --- | --- |
| O=C(O)c1ccc(-c2c[nH]c3ncc(-c4ccccc4)cc23)cc1C1CCCC1 + NC(=O)Nc1cc(-c2cccc(F)c2)sc1C(=O)N[C@H]1CCCNC1 [AZD7762] (partner 0.2 µM) | NCI-H1734 | criterion not met |
| O=C(O)c1ccc(-c2c[nH]c3ncc(-c4ccccc4)cc23)cc1C1CCCC1 + Cc1cc(Nc2cc(N3CCN(C)CC3)nc(Sc3ccc(NC(=O)C4CC4)cc3)n2)n[nH]1 [Tozasertib] (partner 0.1 µM) | NCI-H1734 | criterion met |
| O=C(O)c1ccc(-c2c[nH]c3ncc(-c4ccccc4)cc23)cc1C1CCCC1 + O=C(c1cc(Cc2n[nH]c(=O)c3ccccc23)ccc1F)N1CCN(C(=O)C2CC2)CC1 [Olaparib] (partner 8 µM) | NCI-H1734 | criterion not met |

Query: Would you kindly verify if relative viability of O=C(O)c1ccc(-c2c[nH]c3ncc(-c4ccccc4)cc23)cc1C1CCCC1 + Cc1nc(NC(=O)N2CCC[C@H]2C(N)=O)sc1-c1ccnc(C(C)(C)C(F)(F)F)c1 [Alpelisib] (partner 2 µM) is strictly less than 0.5?
Response: criterion not met

* * *

system: HCC-78; experiment: relative viability (nuclei count vs DMSO), 5 days (fraction); higher = more cells survive; conditions: first compound 0.5 µM
readout.name: relative viability

Query: // query relative viability value for entry CC1(C)CCC(c2ccc(Cl)cc2)=C(CN2CCN(c3ccc(C(=O)NS(=O)(=O)c4ccc(N[C@H](CCN5CCOCC5)CSc5ccccc5)c(S(=O)(=O)C(F)(F)F)c4)cc3)CC2)C1 [Navitoclax] + Nc1ncn([C@H]2C[C@H](O)[C@@H](CO)O2)c(=O)n1 [Decitabine] (partner 2 µM)
Response: 0.798

* * *

Would you kindly list relative viability for each of these compounds?
system: NCI-H2170; assay: relative viability (nuclei count vs DMSO), 5 days (fraction); higher = more cells survive; details: first compound 0.01 µM
Give bare numbers.

// worked examples, relative viability included
| compound | obs.value |
| --- | --- |
| NC(=O)Nc1cc(-c2cccc(F)c2)sc1C(=O)N[C@H]1CCCNC1 [AZD7762] + N=C(N)NC(=N)NCCc1ccccc1 [Phenformin] (partner 250 µM) | 0.411 |
| NC(=O)Nc1cc(-c2cccc(F)c2)sc1C(=O)N[C@H]1CCCNC1 [AZD7762] + COc1cc2c(Oc3ccc(NC(=O)C4(C(=O)Nc5ccc(F)cc5)CC4)cc3F)ccnc2cc1OCCCN1CCOCC1 [Foretinib] (partner 0.25 µM) | 0.925 |
| NC(=O)Nc1cc(-c2cccc(F)c2)sc1C(=O)N[C@H]1CCCNC1 [AZD7762] + Cc1nc(Nc2ncc(C(=O)Nc3c(C)cccc3Cl)s2)cc(N2CCN(CCO)CC2)n1 [Dasatinib] (partner 0.075 µM) | 0.602 |
| NC(=O)Nc1cc(-c2cccc(F)c2)sc1C(=O)N[C@H]1CCCNC1 [AZD7762] + Nc1ncn([C@H]2C[C@H](O)[C@@H](CO)O2)c(=O)n1 [Decitabine] (partner 2 µM) | 0.465 |
| NC(=O)Nc1cc(-c2cccc(F)c2)sc1C(=O)N[C@H]1CCCNC1 [AZD7762] + O=C(c1cc(Cc2n[nH]c(=O)c3ccccc23)ccc1F)N1CCN(C(=O)C2CC2)CC1 [Olaparib] (partner 8 µM) | 0.553 |

Okay, now this compound:
Query: Any idea what relative viability was measured for NC(=O)Nc1cc(-c2cccc(F)c2)sc1C(=O)N[C@H]1CCCNC1 [AZD7762] + COc1cccc2cc(-c3nc([C@H]4CC[C@H](C(=O)O)CC4)n4ncnc(N)c34)[nH]c12 [OSI-027] (partner 0.5 µM) ?
Response: 0.637
